Tested target: ICAM-1 extracellular domain (C-terminal His) (Homo sapiens, UniProt P05362 SEQ:1-453)
Sequence (P05362 28-480): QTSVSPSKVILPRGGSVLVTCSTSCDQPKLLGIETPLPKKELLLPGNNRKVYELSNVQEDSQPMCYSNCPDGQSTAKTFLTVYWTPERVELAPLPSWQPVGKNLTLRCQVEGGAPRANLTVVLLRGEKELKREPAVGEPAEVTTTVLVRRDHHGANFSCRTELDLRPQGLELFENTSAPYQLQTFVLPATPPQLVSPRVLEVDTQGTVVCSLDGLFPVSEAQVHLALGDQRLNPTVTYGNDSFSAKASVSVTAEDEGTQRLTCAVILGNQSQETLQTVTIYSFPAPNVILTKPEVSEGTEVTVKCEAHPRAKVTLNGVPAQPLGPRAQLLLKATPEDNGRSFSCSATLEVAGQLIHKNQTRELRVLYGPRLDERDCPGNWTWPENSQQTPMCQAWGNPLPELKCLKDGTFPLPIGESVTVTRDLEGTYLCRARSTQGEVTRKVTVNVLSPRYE
Experiment summary: ITC; 37 C, potassium phosphate; 8.86 nM at 33 C
Assay setup: tags: C-terminal His6; Ray-Biotech 228-21751-2; label: FAM in cell assay; hairpin with dangling 5' and 3' ends
Metric: pKd
Entry type: numeric. Quantity: pKd, the -log10 of concentration in molar units.

Q) Field request: pKd | item: GTGCTCAGTTGTCAATCTATGACTGCTGCTGAGGAAG (ssDNA) [Nas.D-4.1]
A) 7.95
